Test system: crabgrass, large (large crabgrass, Digitaria sanguinalis)
testSummary: Test A postemergence crabgrass, large
Assay type: in vivo
cond: 500 g ai/ha, 0 to 100 scale, 0 is no effect, 100 is complete control
Text: […]
Kindly return Condition met if reported Plant response rating, Crabgrass, Large is no lower than 10; return Condition not met if it is lower.

{"molecule": "O=C1NCCC(c2ccccc2)C1C(=O)Nc1ccccc1F (racemic)", "assignedCategory": "Condition not met"}
{"molecule": "O=C1NCCC(c2cccc(C(F)(F)F)c2)C1C(=O)Nc1cccc(F)c1F (centres unmarked)", "assignedCategory": "Condition met"}
{"molecule": "O=C1NCCC(c2ccc(F)c(F)c2)C1C(=O)Nc1ccccc1C(F)(F)F (racemic)", "assignedCategory": "Condition met"}
{"molecule": "O=C1NCCC(c2ccc(F)cc2)C1C(=O)Nc1ccccc1C(F)(F)F (racemic)", "assignedCategory": "Condition met"}
{"molecule": "O=C1NCCC(c2ccc(F)c(F)c2)C1C(=O)Nc1ccccc1F (racemic)", "assignedCategory": "Condition met"}
{"molecule": "O=C1NCCC(c2cccc(C(F)(F)F)c2)C1C(=O)Nc1ccccc1C(F)(F)F (centres unmarked)", "assignedCategory": "Condition met"}
{"molecule": "O=C1NCCC(c2ccc(F)cc2)C1C(=O)Nc1ccccc1F (racemic)", "assignedCategory": "Condition not met"}

###

Tested on: barnyardgrass (Echinochloa crus-galli)
testSummary: Test A preemergence barnyardgrass
Assay type: in vivo
cond: 500 g ai/ha, 0 to 100 scale, 0 no effect, 100 complete control

{"compound": "O=C1NCC[C@@H](c2ccc(C(F)(F)F)cc2)[C@@H]1C(=O)Nc1cccc(F)c1F", "Barnyardgrass plant response rating": 70}
{"compound": "O=C1NCCC(c2cccc(OC(F)F)c2)C1C(=O)Nc1ccc(F)c(F)c1F (racemic)", "Barnyardgrass plant response rating": 90}
{"compound": "O=C1NCCC(c2cccc(C(F)(F)F)c2)C1C(=O)Nc1cccc(Cl)c1Cl (racemic)", "Barnyardgrass plant response rating": 80}
{"compound": "O=C1NCCC(c2cccc(C(F)(F)F)c2)C1C(=O)Nc1cccc(Cl)c1F (racemic)", "Barnyardgrass plant response rating": 90}
{"compound": "O=C1NCC[C@@H](c2cccc(Cl)c2)[C@@H]1C(=O)Nc1cccc(F)c1F", "Barnyardgrass plant response rating": 0}
{"compound": "O=C(Nc1ccccc1C(F)(F)F)C1C(=O)N(Cc2ccccc2)CCC1c1ccc(F)cc1 (stereo not shown)", "Barnyardgrass plant response rating": 0}
{"compound": "O=C1NCCC(c2ccc(C(F)(F)F)cc2)C1C(=O)Nc1cccc(F)c1Cl (racemic)", "Barnyardgrass plant response rating": 80}
{"compound": "O=C1NCCC(c2cccc(OC(F)F)c2)C1C(=O)Nc1cccc(F)c1F (racemic)", "Barnyardgrass plant response rating": 90}
{"compound": "O=C(Nc1ccccc1C(F)(F)F)C1C(=O)N(C2CC2)CCC1c1ccc(F)cc1 (stereo not shown)", "Barnyardgrass plant response rating": 0}
{"compound": "O=C1NCCC(c2cccc(C(F)(F)F)c2)C1C(=O)Nc1cccc(F)c1Cl (racemic)", "Barnyardgrass plant response rating": 80}
{"compound": "O=C1NCCC(c2cccc(C(F)F)c2)C1C(=O)Nc1ccccc1F (stereo not shown)", "Barnyardgrass plant response rating": 90}
{"compound": "O=C1NCCC(c2cccc(C(F)(F)F)c2)C1C(=O)Nc1ccccc1Cl (racemic)", "Barnyardgrass plant response rating": 80}
{"compound": "O=C1NCCC(c2cccc(C(F)(F)F)c2)C1C(=O)Nc1ccc(F)c(F)c1F (racemic)", "Barnyardgrass plant response rating": 90}
{"compound": "O=C1NCCC(c2cccc(Cl)c2)C1C(=O)Nc1ccccc1F (racemic)", "Barnyardgrass plant response rating": 90}
{"compound": "O=C1NCCC(c2cccc(C(F)(F)F)c2)C1C(=O)Nc1ccc(F)cc1F (racemic)", "Barnyardgrass plant response rating": 90}
{"compound": "O=C1NCCC(c2cccc(OC(F)(F)F)c2)C1C(=O)Nc1ccccc1C(F)(F)F (racemic)", "Barnyardgrass plant response rating": 80}
